# measured_target: BTK enzyme (recombinant full-length BTK, hBTK) (Homo sapiens, UniProt Q06187)
# Construct: recombinant protein from baculovirus-transfected Sf9 cells: full-length BTK, 6HIS-tag cleaved; 6HIS (cleaved yes); made in house; host or cells: baculovirus-transfected Sf9 cells
# Sequence (Q06187 whole entry): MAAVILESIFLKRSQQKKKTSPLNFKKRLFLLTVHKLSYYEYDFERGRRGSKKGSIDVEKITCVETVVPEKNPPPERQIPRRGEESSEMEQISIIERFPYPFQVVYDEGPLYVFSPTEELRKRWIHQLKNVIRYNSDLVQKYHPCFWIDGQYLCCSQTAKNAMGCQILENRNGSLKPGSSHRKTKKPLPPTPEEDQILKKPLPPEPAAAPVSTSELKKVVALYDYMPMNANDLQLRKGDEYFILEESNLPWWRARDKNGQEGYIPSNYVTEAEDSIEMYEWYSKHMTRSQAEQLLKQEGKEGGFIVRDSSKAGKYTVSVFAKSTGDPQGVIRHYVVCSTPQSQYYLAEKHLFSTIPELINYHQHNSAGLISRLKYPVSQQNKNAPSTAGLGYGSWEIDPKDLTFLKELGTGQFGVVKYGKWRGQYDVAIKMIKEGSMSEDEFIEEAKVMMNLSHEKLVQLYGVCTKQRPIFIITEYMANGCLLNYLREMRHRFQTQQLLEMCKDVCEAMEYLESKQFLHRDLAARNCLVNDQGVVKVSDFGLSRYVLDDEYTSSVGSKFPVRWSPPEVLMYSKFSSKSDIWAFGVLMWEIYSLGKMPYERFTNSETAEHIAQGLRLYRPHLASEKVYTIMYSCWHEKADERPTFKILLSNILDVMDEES
# measurement_description: BTK enzyme activity assay, LANCE TR-FRET
# Format: biochemical
# condition_details: IC50 BTK activity value, 50 pM hBTK, 2 μM biotin-A5-peptide, 25 μM ATP; 60 min compound & enzyme incubation
Each entry below carries its recorded pIC50.
As a rule, pIC50 stands for the negative log10 of the concentration, concentration in M.

> print(dat)
                            molecule.smiles  reported.metric  result
1  Nc1nccn2c([C@H]3CC[C@H]4COC(=O)N4C3)nc(-c3ccc(C(=O)Nc4cc(C(F)(F)F)ccn4)cc3)c12            pIC50    8.26

Name the recorded pIC50 for `Nc1nccn2c([C@@H]3CC[C@@H]4COC(=O)N4C3)nc(-c3ccc(C(=O)Nc4cc(C(F)(F)F)ccn4)cc3)c12` .
7.81
